Tested on: P. intermedia
Protocol summary: Multi-species biofilm composition, absolute abundance (Geq/mL)
Assay type: cell-based
Study conditions: substrate 1 M in PBS, repeated rinsing, n = 3
Exercise: state measured absolute abundance of P. intermedia (Pi), mean ± SD log (Geq/mL) for each of the compounds provided.

Q. // fetch P. intermedia absolute abundance of P. intermedia (Pi), mean ± SD log (Geq/mL) for OC[C@H]1O[C@H](O[C@H]2O[C@H](CO)[C@@H](O)[C@H](O)[C@H]2O)[C@H](O)[C@@H](O)[C@@H]1O [D-trehalose, D-(+)-trehalose]
A. 4.47 ± 0.60^∗ log (Geq/mL)

Q. Observed absolute abundance of P. intermedia (Pi), mean ± SD log (Geq/mL) on P. intermedia for OC[C@H]1O[C@H](OC[C@H]2O[C@H](O[C@]3(CO)O[C@H](CO)[C@@H](O)[C@@H]3O)[C@H](O)[C@@H](O)[C@@H]2O)[C@H](O)[C@@H](O)[C@H]1O [D-raffinose, D-(+)-raffinose] , please.
A. 5.21 ± 0.77^∗ log (Geq/mL)

Q. Give absolute abundance of P. intermedia (Pi), mean ± SD log (Geq/mL) (P. intermedia) of the following compound: OC[C@H]1O[C@@H](O[C@H]2[C@H](O)[C@@H](O)[C@@H](O)O[C@@H]2CO)[C@H](O)[C@@H](O)[C@H]1O
A. 4.05 ± 0.61^∗ log (Geq/mL)

Q. # returns recorded absolute abundance of P. intermedia (Pi), mean ± SD log (Geq/mL) (system: P. intermedia) for CC(=O)N[C@H]1C(O)O[C@H](CO)[C@@H](O)[C@@H]1O (stereo partly shown)
A. 4.09 ± 0.16^∗ log (Geq/mL)
